System: Respiratory syncytial virus recombinant with luciferase (RSV-Luc5) in HEp-2 cells
Test: microbe, parasite or virus in culture
Type: cell-based
Conditions: human respiratory syncytial virus, HEp-2, 72 h, read-out: RSV Hep2 EC50
Consider the following molecules; for each one, report its EC50.
Value expressed in nM; do not type the unit.

Req: Fill in: EC50 of N#C[C@@]1(c2ccc3c(N)ncnn23)O[C@H](COC(=O)OC2CCCC2)[C@@H](O)[C@H]1O [Compound 12] is ___
Resp: 659

Req: Subsequent entry: CC(=O)O[C@H]1[C@@H](OC(C)=O)[C@](C#N)(c2ccc3c(N)ncnn23)O[C@@H]1COC(=O)OC(C)C [Compound 65]
Resp: 1080

Req: Subsequent entry: CC(C)(C)COC(=O)OC[C@H]1O[C@@](C#N)(c2ccc3c(=N)n(COP(=O)(O)O)cnn23)[C@H](O)[C@@H]1O [Compound 19]
Resp: 1240

Req: Subsequent entry: CC(C)C(=O)O[C@H]1[C@@H](OC(=O)C(C)C)[C@](C#N)(c2ccc3c(N)ncnn23)O[C@@H]1COC(=O)OC(C)(C)C [Compound 58]
Resp: 1360

Req: Subsequent entry: CCOC(=O)OC[C@H]1O[C@@](C#N)(c2ccc3c(N)ncnn23)[C@H](O)[C@@H]1O [Compound 6]
Resp: 1120

Req: Subsequent entry: CC1(OC(=O)OC[C@H]2O[C@@](C#N)(c3ccc4c(N)ncnn34)[C@H](O)[C@@H]2O)CCCC1 [Compound 56]
Resp: 1260
